Numbers sourced from PubChem BioAssay.

# PROCEDURE TEXT: MM1S myeloma cell viability, profiling panel, resazurin fluorescence, basal, 24 h, PK04 Diversity Set (AID 1174);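 also: MM1S multiple myeloma cell line; test concentration not given here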
# CONDITION: higher = more signal, called active from +8 up or from −8 down
Active and inactive are the calls of the source.
ASSAY METRIC: z-score

[
  {
    "COMPOUND": "C=C(/C(=C/C[C@@H](OC(C)=O)c1ccc(OCCO)cc1)c1cnc2ccccc2c1)C(C)C",
    "z-score": "-0.318 (inactive)"
  }
]

For record "Cc1ccc(S[C@]2(C(=O)NCC(F)(F)F)CC(=O)N(C(C)C)[C@@H]2c2ccc(CO)cc2I)cc1" the listed z-score is -0.881 (inactive)

For record CCOC1=C2C(CN(S(=O)(=O)c3ccc(C)cc3)C2c2ccc(C)cc2)C2C(=O)N(c3ccccc3)C(=O)C2C1 (centres undefined) the listed z-score is -0.193 (inactive)

For record "COC(=O)[C@@]1(Cc2ccccc2)[C@H]2c3cc(C(=O)N4CCCC4)n(Cc4cccc5ccccc45)c3C[C@H]2CN1C(=O)c1ccccc1" the listed z-score is -1.65 (inactive)

---

# TESTED SYSTEM: Neurogenic locus notch homolog protein 3 (Homo sapiens)
# PROCEDURE TEXT: NOTCH3 binders on small-molecule microarray, primary screen, biochemical, 635/667 nm fluorescence (AID 1096)
# CONDITION: NOTCH3 binding, 635 nm fluorescence, higher = more signal
Recorded measurements of composite z-score, one per entry
Respond numerically, and do not add a unit to the figure.

Worked cases, answers included:
[
  {
    "MOLECULE": "C=C(COC)/C(=C/C[C@@H](OC(C)=O)c1ccc(CO)o1)c1cnc2ccccc2c1",
    "composite z-score": 1.04
  },
  {
    "MOLECULE": "CCN(CC)c1ccc(N2CC=CC34O[C@@H]5/C=C\\CCCOC(=O)C5[C@H]3C(=O)N(CCO)[C@@H]4C2=O)cc1 (some centres not stated)",
    "composite z-score": -0.162
  },
  {
    "MOLECULE": "CO[C@H]1O[C@H](CO)[C@@H](OC(=O)Nc2ccc(Br)cc2)[C@H](OC(=O)c2cc3ccccc3[nH]2)[C@H]1OC(=O)c1cc2ccccc2[nH]1",
    "composite z-score": 0.944
  },
  {
    "MOLECULE": "C=CCNC(=O)[C@@H]1[C@H]2C(=O)O[C@H](c3ccccc3)[C@H](c3ccccc3)N2[C@H](c2ccc(OCCO)cc2)[C@@]12C(=O)Nc1ccc(C#CCCO)cc12",
    "composite z-score": 1.12
  },
  {
    "MOLECULE": "CCOC(=O)C[C@H]1[C@H](OC(=O)c2cc3ccccc3oc2=O)[C@@H](NC(=O)C2CCCCC2)c2cc(OCCCO)ccc2N1C(=O)c1ccccc1",
    "composite z-score": 0.615
  }
]

For record "COc1ccc([Si](C)(C)[C@H]2[C@H](CCO)O[C@@]3(C(=O)N(C)c4c(Br)cc(C)cc43)[C@@H]2C)cc1" the listed composite z-score is 1.1

For record CC(CO)N1C(=O)[C@@H]2C3C(=O)OCCC/C=C\[C@H]3OC23C=CCN(c2ccc4ccccc4c2)C(=O)[C@@H]13 (some centres not stated) the listed composite z-score is -0.341
